# procedure-text: Stability in rat plasma assessed as parent compound remaining at 100 uM measured after 24 hrs by HPLC analysis (reference value: 49 to 86%)
# Format: ADME, cell-free
# test-settings: read-out: Stability
Each entry below carries its recorded remaining at 24 h, 100 µM.

smiles-repr: N=C(N)NCCC[C@H](NC(=O)[C@@H]1CCCN1C(=O)OCc1ccccc1)C(=O)Nc1ccc(COC(=O)NCCCC(O)(P(=O)(O)O)P(=O)(O)O)cc1
remaining at 24 h, 100 µM [%]: 65
//
smiles-repr: CC(C)C[C@H](NC(=O)OCc1ccccc1)C(=O)N[C@@H](CCCNC(=N)N)C(=O)Nc1ccc(COC(=O)NCCCC(O)(P(=O)(O)O)P(=O)(O)O)cc1
remaining at 24 h, 100 µM [%]: 59

* * *

# target-of-assay: UniProt P43235
# Sequence (P43235 whole entry): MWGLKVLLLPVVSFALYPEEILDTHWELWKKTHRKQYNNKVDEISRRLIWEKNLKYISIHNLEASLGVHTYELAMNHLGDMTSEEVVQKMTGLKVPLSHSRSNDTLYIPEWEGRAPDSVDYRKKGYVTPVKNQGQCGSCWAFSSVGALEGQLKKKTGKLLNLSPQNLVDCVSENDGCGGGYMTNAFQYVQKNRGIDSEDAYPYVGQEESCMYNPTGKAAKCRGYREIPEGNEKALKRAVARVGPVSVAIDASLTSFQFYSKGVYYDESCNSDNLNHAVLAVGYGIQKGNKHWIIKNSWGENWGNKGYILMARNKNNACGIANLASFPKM
# procedure-text: Substrate activity at recombinant human cathepsin K expressed in Escherichia coli assessed as compound cleavage at 100 uM after 3 hrs by HPLC analysis
# Type: ADME
# test-settings: read-out: Drug degradation

smiles-repr: CC(C)C[C@H](NC(=O)OCc1ccccc1)C(=O)N[C@@H](CCCNC(=N)N)C(=O)Nc1ccc(COC(=O)NCCCC(O)(P(=O)(O)O)P(=O)(O)O)cc1
quantity-unit: %
metabolised at 3 h, 100 µM: 79

* * *

# procedure-text: Stability in rat plasma assessed as parent compound remaining at 100 uM measured after 2 hrs by HPLC analysis (reference value: 49 to 86%)
# Assay type: ADME, cell-free
# test-settings: read-out: Stability
Each entry below carries its recorded remaining at 2 h, 100 µM.

smiles-repr: N=C(N)NCCC[C@H](NC(=O)[C@@H]1CCCN1C(=O)OCc1ccccc1)C(=O)Nc1ccc(COC(=O)NCCCC(O)(P(=O)(O)O)P(=O)(O)O)cc1
remaining at 2 h, 100 µM: 90%
//
smiles-repr: CC(C)C[C@H](NC(=O)OCc1ccccc1)C(=O)N[C@@H](CCCNC(=N)N)C(=O)Nc1ccc(COC(=O)NCCCC(O)(P(=O)(O)O)P(=O)(O)O)cc1
remaining at 2 h, 100 µM: 78%

* * *

# procedure-text: Drug metabolism in rat plasma at 100 uM measured after 24 hrs by HPLC analysis
# Assay type: ADME, cell-free
# test-settings: read-out: Drug metabolism

smiles-repr: [3H]c1ccc(C(F)(F)[C@@H](/C=C/[C@H]2CCC(=O)N2CCCCCCC(=O)OCC)OC(=O)Cc2ccc(COC(=O)N[C@@H](CC(C)C)C(=O)N[C@@H](CCCNC(=N)N)C(=O)Nc3ccc(COC(=O)NCCCC(O)(P(=O)(O)O)P(=O)(O)O)cc3)cc2)cc1
quantity-unit: %
metabolised at 24 h, 100 µM: 55

* * *

# target-of-assay: cathepsin K (Rattus norvegicus, UniProt O35186)
# Sequence (O35186 whole entry): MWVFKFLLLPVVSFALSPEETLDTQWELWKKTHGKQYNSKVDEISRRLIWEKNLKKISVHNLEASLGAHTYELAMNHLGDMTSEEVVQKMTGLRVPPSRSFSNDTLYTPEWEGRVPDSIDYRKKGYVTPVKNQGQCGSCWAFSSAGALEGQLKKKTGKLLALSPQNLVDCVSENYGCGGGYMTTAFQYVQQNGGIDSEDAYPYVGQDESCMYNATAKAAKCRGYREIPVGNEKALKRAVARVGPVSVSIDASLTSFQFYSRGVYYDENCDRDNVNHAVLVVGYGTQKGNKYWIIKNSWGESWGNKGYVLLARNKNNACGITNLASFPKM
# procedure-text: Substrate activity at recombinant rat cathepsin K expressed in Escherichia coli assessed as compound cleavage at 100 uM after 20 hrs by HPLC analysis
# Assay type: ADME
# test-settings: read-out: Drug degradation
Each entry below carries its recorded metabolised at 20 h, 100 µM.
measurement-kind: metabolised at 20 h, 100 µM (%)

smiles-repr: N=C(N)NCCC[C@H](NC(=O)[C@@H]1CCCN1C(=O)OCc1ccccc1)C(=O)Nc1ccc(COC(=O)NCCCC(O)(P(=O)(O)O)P(=O)(O)O)cc1
target-of-assay: cathepsin K (Rattus norvegicus, UniProt O35186)
quantity-unit: %
readout-number: 52
--
smiles-repr: CC(C)C[C@H](NC(=O)OCc1ccccc1)C(=O)N[C@@H](CCCNC(=N)N)C(=O)Nc1ccc(COC(=O)NCCCC(O)(P(=O)(O)O)P(=O)(O)O)cc1
target-of-assay: cathepsin K (Rattus norvegicus, UniProt O35186)
quantity-unit: %
readout-number: 95
